In this section, each of the compounds is paired with its reported Tmax.
Assay: Mouse PK study (i.v. and p.o.)
Assay type: in vivo
Settings: plasma, po, male CD1 mice, 5 mg/kg p.o.
Protocol: Test compounds were dosed to male CD1 mice at 5 mg/kg by oral gavage (p.o.) or 1 mg/kg by intravenous injection (i.v.). Blood samples were taken at 0.083, 0.25, 0.5, 1.0, 3.0, 6.0 and 24 hours post i.v. dosing and at 0.25, 0.5, 1.0, 3.0, 6.0 and 24 hours post p.o. dosing. The plasma concentration of compounds were determined by HPLC.
Value expressed in h; do not type the unit.

# example entries with known answers
test-smiles	property	measured-number
C[C@@]1(O)CC[C@H]2[C@H](CC[C@@H]3[C@@H]2CC[C@]2(C)[C@@H](C(=O)Cn4nnn(-c5ccncc5)c4=O)CC[C@@H]32)C1	Tmax	3
COc1cccc(-n2nnn(CC(=O)[C@H]3CC[C@H]4[C@@H]5CC[C@@H]6C[C@](C)(O)CC[C@@H]6[C@H]5CC[C@]34C)c2=O)c1	Tmax	0.5
CC(C)(C)n1nnn(CC(=O)[C@H]2CC[C@H]3[C@@H]4CC[C@@H]5C[C@](C)(O)CC[C@@H]5[C@H]4CC[C@]23C)c1=O	Tmax	0.5

Entry "C[C@@]1(O)CC[C@H]2[C@H](CC[C@@H]3[C@@H]2CC[C@]2(C)[C@@H](C(=O)Cn4nnn(-c5cocn5)c4=O)CC[C@@H]32)C1" , Tmax reported as 3

Entry "CC(C)n1nnn(CC(=O)[C@H]2CC[C@H]3[C@@H]4CC[C@@H]5C[C@](C)(O)CC[C@@H]5[C@H]4CC[C@]23C)c1=O" , Tmax reported as 0.25

Entry "COc1ccc(-n2nnn(CC(=O)[C@H]3CC[C@H]4[C@@H]5CC[C@@H]6C[C@](C)(O)CC[C@@H]6[C@H]5CC[C@]34C)c2=O)cc1" , Tmax reported as 1

Entry "Cn1nnn(CC(=O)[C@H]2CC[C@H]3[C@@H]4CC[C@@H]5C[C@](C)(O)CC[C@@H]5[C@H]4CC[C@]23C)c1=O" , Tmax reported as 1

Entry "C[C@@]1(O)CC[C@H]2[C@H](CC[C@@H]3[C@@H]2CC[C@]2(C)[C@@H](C(=O)Cn4nnn(-c5ccccc5)c4=O)CC[C@@H]32)C1" , Tmax reported as 3

Entry "Cn1ccc(-n2nnn(CC(=O)[C@H]3CC[C@H]4[C@@H]5CC[C@@H]6C[C@](C)(O)CC[C@@H]6[C@H]5CC[C@]34C)c2=O)n1" , Tmax reported as 1

Entry "C[C@@]1(O)CC[C@H]2[C@H](CC[C@@H]3[C@@H]2CC[C@]2(C)[C@@H](C(=O)Cn4nnn(-c5ccn[nH]5)c4=O)CC[C@@H]32)C1" , Tmax reported as 3

Entry "Cn1nccc1-n1nnn(CC(=O)[C@H]2CC[C@H]3[C@@H]4CC[C@@H]5C[C@](C)(O)CC[C@@H]5[C@H]4CC[C@]23C)c1=O" , Tmax reported as 1

Entry "C[C@@]1(O)CC[C@H]2[C@H](CC[C@@H]3[C@@H]2CC[C@]2(C)[C@@H](C(=O)Cn4nnn(C(F)(F)F)c4=O)CC[C@@H]32)C1" , Tmax reported as 0.5

Entry "CCn1nnn(CC(=O)[C@H]2CC[C@H]3[C@@H]4CC[C@@H]5C[C@](C)(O)CC[C@@H]5[C@H]4CC[C@]23C)c1=O" , Tmax reported as 0.5

Entry "C[C@@]1(O)CC[C@H]2[C@H](CC[C@@H]3[C@@H]2CC[C@]2(C)[C@@H](C(=O)Cn4nnn(-c5ccc(C#N)cc5)c4=O)CC[C@@H]32)C1" , Tmax reported as 1

Entry "C[C@@]1(O)CC[C@H]2[C@H](CC[C@@H]3[C@@H]2CC[C@]2(C)[C@@H](C(=O)Cn4nnn(-c5cccc(C#N)c5)c4=O)CC[C@@H]32)C1" , Tmax reported as 1

Entry "C[C@@]1(O)CC[C@H]2[C@H](CC[C@@H]3[C@@H]2CC[C@]2(C)[C@@H](C(=O)Cn4nnn(-c5cn[nH]c5)c4=O)CC[C@@H]32)C1" , Tmax reported as 6
